assay-name: MRT (0 to t) in male Sprague-Dawley rat at 10 mg/kg, po by LC-MS/MS analysis
Format: ADME, organism-based
test-conditions: in vivo
assay-metric: MRT last (h)
Just the number please, in h, no unit attached.

Exercise: Give recorded MRT last. C[C@@]1(O)CC[C@]23O[C@@]2(C)CC[C@@H]2[C@H](OC(=O)[C@H]2CS(=O)(=O)c2c(Cl)cccc2Cl)[C@@H]13
Key: 1.74

---

system-name: Signal transducer and activator of transcription 3 (Homo sapiens, UniProt P40763)
Sequence (P40763 whole entry): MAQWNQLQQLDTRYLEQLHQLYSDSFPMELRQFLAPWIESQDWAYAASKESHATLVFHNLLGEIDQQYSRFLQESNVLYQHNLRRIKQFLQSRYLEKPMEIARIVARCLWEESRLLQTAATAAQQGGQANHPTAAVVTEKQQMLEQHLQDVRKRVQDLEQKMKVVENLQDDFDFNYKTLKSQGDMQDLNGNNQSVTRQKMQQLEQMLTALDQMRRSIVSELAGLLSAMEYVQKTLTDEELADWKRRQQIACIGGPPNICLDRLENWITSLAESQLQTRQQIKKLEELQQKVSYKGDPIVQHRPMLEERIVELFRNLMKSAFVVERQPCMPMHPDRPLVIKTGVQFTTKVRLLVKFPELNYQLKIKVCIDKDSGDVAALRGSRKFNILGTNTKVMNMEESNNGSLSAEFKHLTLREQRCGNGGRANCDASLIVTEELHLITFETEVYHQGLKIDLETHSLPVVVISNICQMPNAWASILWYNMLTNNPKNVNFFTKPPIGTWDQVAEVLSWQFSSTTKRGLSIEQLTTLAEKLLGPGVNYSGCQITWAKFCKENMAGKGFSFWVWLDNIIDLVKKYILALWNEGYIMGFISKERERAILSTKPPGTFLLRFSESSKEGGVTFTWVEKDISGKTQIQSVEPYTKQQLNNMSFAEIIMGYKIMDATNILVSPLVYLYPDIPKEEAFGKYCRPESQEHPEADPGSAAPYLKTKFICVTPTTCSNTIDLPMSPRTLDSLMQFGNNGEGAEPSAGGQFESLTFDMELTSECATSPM
assay-name: Binding affinity to His-tagged human recombinant STAT3 assessed as dissociation constant by MST assay
assay-metric: Kd (nM)
Number only, in nM; omit the unit.

Exercise: Return reported Kd. Input compound: C[C@@]1(O)CC[C@]23O[C@@]2(C)CC[C@@H]2[C@H](OC(=O)[C@H]2CS(=O)(=O)c2c(Cl)cccc2Cl)[C@@H]13
Key: 90.5
